Cited source: ChEMBL document CHEMBL5512656

# assayRemarks: Neurotoxicity in ip dosed Kunming mouse by rotarod test
# Type: toxicity, organism-based
# assayContext: in vivo
reportedEndpoint: TD50
Give your result as the value with the unit written after it.

## Input Dear colleague, I am looking for the recorded TD50 of the following compound: Cc1ccccc1-c1nn[nH]n1
## Output 190 mg/kg

----------
# assayRemarks: Neurotoxicity in ip dosed Kunming mouse after 15 mins by rotarod test
# Assay type: toxicity, organism-based
# assayContext: in vivo
reportedEndpoint: TD50 at 0.25 h (mg/kg)
Give bare numbers, in mg/kg.

## Input Dear colleague, I am looking for the recorded TD50 at 0.25 h of the following compound: Clc1ccc(Oc2nn3nnnc3c3ccccc23)cc1
## Output 456

----------
I'd be grateful if you could share measured Time for these entries.
# System: Mus musculus
# assayRemarks: Antidepressant activity in Kunming mouse assessed as reduction in duration of immobility time at 30 mg/kg, ip by forced swim test
# Assay type: functional
Give bare numbers, in s.

Would you mind listing Time for each of the following molecules?
1. CCCCCCOc1nc2nnnn2c2ccccc12
2. CCCCCOc1nc2nnnn2c2ccccc12
3. CNCCC(Oc1ccc(C(F)(F)F)cc1)c1ccccc1 (centres undefined)
4. COc1ccc(Oc2nc3nnnn3c3ccccc23)cc1

## Output
1. 62.2
2. 112.3
3. 61.3
4. 85.2

----------
I'd be grateful if you could share measured pIC50 for these entries.
# testedSystem: Acetylcholinesterase (Electrophorus electricus, UniProt O42275)
# Sequence (O42275 whole entry): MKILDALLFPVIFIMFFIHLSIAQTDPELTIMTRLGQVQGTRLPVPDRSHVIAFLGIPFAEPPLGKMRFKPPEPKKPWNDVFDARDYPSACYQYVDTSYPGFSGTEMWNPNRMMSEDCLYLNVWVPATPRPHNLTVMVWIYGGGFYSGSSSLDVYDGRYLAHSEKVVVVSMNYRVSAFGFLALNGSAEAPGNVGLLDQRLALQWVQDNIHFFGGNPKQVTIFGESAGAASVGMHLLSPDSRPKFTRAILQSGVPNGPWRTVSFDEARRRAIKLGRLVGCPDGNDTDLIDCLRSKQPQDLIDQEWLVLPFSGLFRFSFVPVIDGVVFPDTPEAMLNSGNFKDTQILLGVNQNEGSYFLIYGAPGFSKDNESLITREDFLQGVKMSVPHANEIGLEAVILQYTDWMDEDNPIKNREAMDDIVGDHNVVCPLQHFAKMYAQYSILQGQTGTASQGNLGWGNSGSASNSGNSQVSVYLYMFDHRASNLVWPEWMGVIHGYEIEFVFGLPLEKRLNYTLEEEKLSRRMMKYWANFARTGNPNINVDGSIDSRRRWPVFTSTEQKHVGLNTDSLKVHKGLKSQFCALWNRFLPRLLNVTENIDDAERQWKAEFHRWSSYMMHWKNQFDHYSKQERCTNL
# assayRemarks: Inhibition of electric eel AChE using acetylthiocholine iodide as substrate preincubated for 10 mins followed by substrate addition and measured after 15 mins by Ellman's method
One number for each entry, as −log10 of the molar value.

Observe how each entry below is paired with its result.
CC1(c2ccc(F)cc2)CC(c2ccc(F)cc2)=C(C#N)/C(=C(/C#N)c2nnn[nH]2)N1 (stereo not drawn) = 5.70
COc1ccccc1C1=C(C#N)/C(=C(/C#N)c2nnn[nH]2)NC(C)(c2ccccc2OC)C1 (stereo not drawn) = 4.71

## Input Dear colleague, I am looking for the recorded pIC50 of the following compound: CN(C)C(=O)Oc1cccc([N+](C)(C)C)c1 [NEOSTIGMINE]
## Output 7.72

----------
I'd be grateful if you could share measured pIC50 for these entries.
# testedSystem: Acetylcholinesterase (Electrophorus electricus, UniProt O42275)
# assayRemarks: Inhibition of electric eel AChE using acetylthiocholine iodide as substrate incubated for 30 mins by Ellman's method
One number for each entry, as −log10 of the molar value.

Observe how each entry below is paired with its result.
O=C1c2ccccc2C[C@@H]1Sc1nnnn1-c1cccc([N+](=O)[O-])c1 = 5.54
O=C1c2ccccc2C[C@@H]1Sc1nnnn1-c1ccc([N+](=O)[O-])cc1 = 5.18

Would you mind listing pIC50 for each of the following compounds?
1. O=C1c2ccccc2C[C@@H]1Sc1nnnn1-c1ccc(F)cc1
2. O=C1c2ccccc2C[C@@H]1Sc1nnnn1-c1ccccc1F
3. Cc1ccccc1-n1nnnc1S[C@H]1Cc2ccccc2C1=O
4. O=C1c2ccccc2C[C@@H]1Sc1nnnn1-c1cccc(F)c1

## Output
1: 5.52; 2: 5.39; 3: 5.12; 4: 5.58

----------
# assayRemarks: Neurotoxicity in ip dosed mouse by rotarod test
# Assay type: toxicity, organism-based
# assayContext: in vivo
reportedEndpoint: TD50 (mg/kg)
One number for each entry, in mg/kg.

Cc1ccccc1-c1nnnn1Cc1cccc(F)c1 = 450

Okay, now this compound:
## Input Dear colleague, I am looking for the recorded TD50 of the following compound: Cc1ccccc1Cn1nnnc1-c1ccccc1C
## Output 500
